# Test system: Sarcina lutea ATCC 9341
# assay summary: MIC against Sarcina lutea ATCC 9341
# Format: cell-based
# condition notes: Bacterial count inoculated 10^6 cells/ml

molecule	result modifier	Minimum Inhibitory Concentration (MIC)
CCN1CCN(C(=O)NC(C(=O)NC2C(=O)N3C(C(=O)O)=C(CSc4nnnn4C)CSC23)c2ccc(O)cc2)C(=O)C1=O (stereo not shown) [Comparative Compound (c), reference compound]	≤	0.2
CO/N=C(\C(=O)N[C@@H]1C(=O)N2C(C(=O)O)=C(CSc3nnc(CC(N)C(=O)O)s3)CS[C@H]12)c1csc(N)n1 (stereo partly shown) [Compound No. 7]	≤	0.2
CO/N=C(\C(=O)N[C@@H]1C(=O)N2C(C(=O)O)=C(C[n+]3cccc(CC(N)C(=O)O)c3)CS[C@H]12)c1csc(N)n1 (stereo partly shown) [Compound No. 15]	≤	0.1
CO/N=C(\C(=O)N[C@@H]1C(=O)N2C(C(=O)O)=C(COC(C)=O)CS[C@H]12)c1csc(N)n1 [Comparative Compound (b), reference compound]	≤	0.2
Cc1nnc(SCC2=C(C(=O)O)N3C(=O)C(NC(=O)Cn4cnnn4)C3SC2)s1 (stereo not shown) [Comparative Compound (a), reference compound]	=	0.8
CO/N=C(\C(=O)N[C@@H]1C(=O)N2C(C(=O)O)=C(C[n+]3ccc(CC(N)C(=O)O)cc3)CS[C@H]12)c1csc(N)n1 (stereo partly shown) [Compound No. 14]	=	0.8
CO/N=C(\C(=O)N[C@@H]1C(=O)N2C(C(=O)O)=C(CSc3nc(C(=O)O)c(N)n3C)CS[C@H]12)c1csc(N)n1 [Compound No. 2]	=	0.2

====

# Test system: Staph. aureus ATCC 6538P
# assay summary: MIC against Staph. aureus ATCC 6538P
# Assay type: cell-based
# condition notes: Bacterial count inoculated 10^6 cells/ml
readout kind: Minimum Inhibitory Concentration (MIC)

compound	measured number
CO/N=C(\C(=O)N[C@@H]1C(=O)N2C(C(=O)O)=C(CSc3nc(C(=O)O)c(N)n3C)CS[C@H]12)c1csc(N)n1	3.1
CO/N=C(\C(=O)N[C@@H]1C(=O)N2C(C(=O)O)=C(C[n+]3ccc(CC(N)C(=O)O)cc3)CS[C@H]12)c1csc(N)n1 (stereo partly shown)	6.3
Cc1nnc(SCC2=C(C(=O)O)N3C(=O)C(NC(=O)Cn4cnnn4)C3SC2)s1 (stereo not shown) [Comparative Compound (a), reference compound]	0.4
CO/N=C(\C(=O)N[C@@H]1C(=O)N2C(C(=O)O)=C(CSc3nnc(CC(N)C(=O)O)s3)CS[C@H]12)c1csc(N)n1 (stereo partly shown)	1.6
CO/N=C(\C(=O)N[C@@H]1C(=O)N2C(C(=O)O)=C(COC(C)=O)CS[C@H]12)c1csc(N)n1 [Comparative Compound (b), reference compound]	1.6
CCN1CCN(C(=O)NC(C(=O)NC2C(=O)N3C(C(=O)O)=C(CSc4nnnn4C)CSC23)c2ccc(O)cc2)C(=O)C1=O (stereo not shown) [Comparative Compound (c), reference compound]	1.6
CO/N=C(\C(=O)N[C@@H]1C(=O)N2C(C(=O)O)=C(C[n+]3cccc(CC(N)C(=O)O)c3)CS[C@H]12)c1csc(N)n1 (stereo partly shown)	3.1

====

# Tested on: E. coli W3630 PS3
# assay summary: MIC against E. coli W3630 PS3
# Assay type: cell-based
# condition notes: Bacterial count inoculated 10^6 cells/ml
Items are presented alongside their recorded Minimum Inhibitory Concentration (MIC).

compound	result modifier	Minimum Inhibitory Concentration (MIC)
CO/N=C(\C(=O)N[C@@H]1C(=O)N2C(C(=O)O)=C(C[n+]3ccc(CC(N)C(=O)O)cc3)CS[C@H]12)c1csc(N)n1 (stereo partly shown)	≤	0.1
CO/N=C(\C(=O)N[C@@H]1C(=O)N2C(C(=O)O)=C(CSc3nnc(CC(N)C(=O)O)s3)CS[C@H]12)c1csc(N)n1 (stereo partly shown)	≤	0.2
CCN1CCN(C(=O)NC(C(=O)NC2C(=O)N3C(C(=O)O)=C(CSc4nnnn4C)CSC23)c2ccc(O)cc2)C(=O)C1=O (stereo not shown) [Comparative Compound (c), reference compound]	≤	0.2
CO/N=C(\C(=O)N[C@@H]1C(=O)N2C(C(=O)O)=C(COC(C)=O)CS[C@H]12)c1csc(N)n1 [Comparative Compound (b), reference compound]	≤	0.2
CO/N=C(\C(=O)N[C@@H]1C(=O)N2C(C(=O)O)=C(C[n+]3cccc(CC(N)C(=O)O)c3)CS[C@H]12)c1csc(N)n1 (stereo partly shown)	=	0.1
Cc1nnc(SCC2=C(C(=O)O)N3C(=O)C(NC(=O)Cn4cnnn4)C3SC2)s1 (stereo not shown) [Comparative Compound (a), reference compound]	=	3.1
CO/N=C(\C(=O)N[C@@H]1C(=O)N2C(C(=O)O)=C(CSc3nc(C(=O)O)c(N)n3C)CS[C@H]12)c1csc(N)n1	=	0.2

====

Attribute: Minimum Inhibitory Concentration (MIC)
# Test system: Salm. enteritidis Gaertner
# assay summary: MIC against Salm. enteritidis Gaertner
# Format: cell-based
# condition notes: Bacterial count inoculated 10^6 cells/ml

molecule	Minimum Inhibitory Concentration (MIC)
CO/N=C(\C(=O)N[C@@H]1C(=O)N2C(C(=O)O)=C(C[n+]3ccc(CC(N)C(=O)O)cc3)CS[C@H]12)c1csc(N)n1 (stereo partly shown) [Compound No. 14]	≤ 0.1
CO/N=C(\C(=O)N[C@@H]1C(=O)N2C(C(=O)O)=C(COC(C)=O)CS[C@H]12)c1csc(N)n1 [Comparative Compound (b), reference compound]	≤ 0.2
CO/N=C(\C(=O)N[C@@H]1C(=O)N2C(C(=O)O)=C(CSc3nnc(CC(N)C(=O)O)s3)CS[C@H]12)c1csc(N)n1 (stereo partly shown) [Compound No. 7]	≤ 0.2
CO/N=C(\C(=O)N[C@@H]1C(=O)N2C(C(=O)O)=C(C[n+]3cccc(CC(N)C(=O)O)c3)CS[C@H]12)c1csc(N)n1 (stereo partly shown) [Compound No. 15]	≤ 0.1

All values here come from patent US4616081A.
